Where do these numbers come from? They come from PubChem BioAssay (NCI).

- Test system: MOLT-4 leukemia
- ASSAY NOTES: NCI-60 one-dose screen, 48 h (100 = growth as untreated, 0 = no growth, -100 = all killed)
- RUN CONDITIONS: 10 µM unless noted
- Protocol: Growth inhibition of the MOLT-4 human tumor cell line is measured as a screen for anti-cancer activity. Cells are grown in 96 well plates and exposed to the test compound for 48 hours. Compounds are tested at a single concentration, which is 10^-5 M for most compounds. The reported endpoint is percent growth (GI% or GIPRCNT), where numbers from 0 - 100% represent growth inhibition, and numbers from -100% - 0 represent cell death. For example, a value of 40 represents 60% growth inhibition. […]
This is part of a sample that, as a whole, favours compounds with a hit. Of some 83,000 tested, about 20% had one in any assay. Active and inactive are the calls of the source. Rule for the calls: active = growth percent below 10; inactive = the rest.
Listing: growth of selected compounds

{"COMPOUND": "O=C1COCCN1c1ccc(Nc2nc(Cl)nc(N3CCOCC3)n2)cc1", "growth": "96.3% (inactive)"}
{"COMPOUND": "Cc1nc(Cl)cc(N(c2cc(Cl)nc(C)n2)c2ncc(C(=O)Nc3c(C)cccc3Cl)s2)n1", "growth": "40.6% (inactive)"}
{"COMPOUND": "Brc1ccc2c(c1)CN(C1CCCCC1)CO2", "growth": "99.7% (inactive)"}
{"COMPOUND": "Cn1cc(-c2nnc(-c3cn(C)c4ncccc34)o2)c2ccccc21", "growth": "18.3% (inactive)"}
{"COMPOUND": "N#Cc1ccc(-c2ccc(COc3ccc(CC4SC(=O)NC4=O)cc3)cc2)cc1 (stereo not given)", "growth": "37.8% (inactive)"}
{"COMPOUND": "CCOC(=O)c1nn(C2CCCCO2)c2ccc(NC(=O)Cn3nnc4ccccc43)cc12 (stereo not given)", "growth": "95.9% (inactive)"}
{"COMPOUND": "C=C(C)[C@@H]1CC[C@]2(C(=O)NCCCN)CC[C@]3(C)[C@H](CC[C@@H]4[C@@]5(C)CC[C@H](O)C(C)(C)[C@@H]5CC[C@]43C)[C@@H]12", "growth": "2.76% [100 µM] (active)"}
{"COMPOUND": "C/C=C/C1OC23CCCCC2C(C#N)(C(=N)O3)C1(C#N)C#N (stereo not given)", "growth": "95% (inactive)"}
{"COMPOUND": "CC1Cc2ccc(OCCN(C)C)cc2C1=O (stereo not given)", "growth": "102% (inactive)"}
{"COMPOUND": "O=C(NCc1ccc(Cn2c(=O)sn(-c3ccccc3)c2=O)cc1)OCc1ccc2c(Br)cc(Br)c(O)c2n1", "growth": "2% (active)"}

---

- Tested on: T-47D breast
- ASSAY NOTES: NCI-60 one-dose screen, 48 h
- RUN CONDITIONS: 10 µM unless noted
The panel holds about 83,000 compounds, 20% with a hit somewhere; the sample as a whole holds those more often. Active and inactive are the calls of the source. How the source made its calls: active means growth percent below 10; inactive means the rest.
Classes used: active, inactive

{"COMPOUND": "CC(C)C1=NOC(=O)C1=Cc1cn(-c2ccccc2)nc1-c1ccc(Cl)cc1", "STUDY TARGET": "T-47D breast", "LABEL VALUE": "inactive"}
{"COMPOUND": "FC(F)(F)c1ccc2c(c1)Sc1ccccc1N2", "STUDY TARGET": "T-47D breast", "LABEL VALUE": "inactive"}
{"COMPOUND": "CCN1CCN(CC(=O)Nc2nc3ccc(NCc4ccc(Cl)cc4)cc3s2)CC1", "STUDY TARGET": "T-47D breast", "LABEL VALUE": "inactive"}
{"COMPOUND": "CNc1cc(C(=O)O)nc(NC)n1", "STUDY TARGET": "T-47D breast", "LABEL VALUE": "inactive"}
{"COMPOUND": "COc1ccc(C2CC(c3ccc4ccccc4c3)=NN2c2nc(O)c(C3=c4cc(OC)ccc4=NC3=O)s2)cc1 (centres undefined)", "STUDY TARGET": "T-47D breast", "LABEL VALUE": "active"}
{"COMPOUND": "C[C@]12CCc3nc(Nc4ccccc4)sc3C1=CC[C@@H]1[C@@H]2CC[C@]2(C)/C(=N/NC(N)=S)CC[C@@H]12", "STUDY TARGET": "T-47D breast", "LABEL VALUE": "active"}
{"COMPOUND": "Cn1cc(-c2nnc(-c3cn(C)c4ncccc34)s2)c2ccccc21", "STUDY TARGET": "T-47D breast", "LABEL VALUE": "inactive"}
{"COMPOUND": "Fc1cc2[nH]ncc2c2c3c(c(-c4cn[nH]c4C(F)(F)F)nc12)C1CCC3C1 (centres undefined)", "STUDY TARGET": "T-47D breast", "LABEL VALUE": "active"}
{"COMPOUND": "C=C(C)[C@@H]1CC[C@]2(C(N)=O)CC[C@]3(C)[C@H](CC[C@@H]4[C@@]5(C)C/C(=C/c6cccnc6)[C@H](O)C(C)(C)[C@@H]5CC[C@]43C)[C@@H]12", "STUDY TARGET": "T-47D breast", "LABEL VALUE": "inactive"}
